Molecular target: MPO (Homo sapiens)
Sequence (P05164 49-745): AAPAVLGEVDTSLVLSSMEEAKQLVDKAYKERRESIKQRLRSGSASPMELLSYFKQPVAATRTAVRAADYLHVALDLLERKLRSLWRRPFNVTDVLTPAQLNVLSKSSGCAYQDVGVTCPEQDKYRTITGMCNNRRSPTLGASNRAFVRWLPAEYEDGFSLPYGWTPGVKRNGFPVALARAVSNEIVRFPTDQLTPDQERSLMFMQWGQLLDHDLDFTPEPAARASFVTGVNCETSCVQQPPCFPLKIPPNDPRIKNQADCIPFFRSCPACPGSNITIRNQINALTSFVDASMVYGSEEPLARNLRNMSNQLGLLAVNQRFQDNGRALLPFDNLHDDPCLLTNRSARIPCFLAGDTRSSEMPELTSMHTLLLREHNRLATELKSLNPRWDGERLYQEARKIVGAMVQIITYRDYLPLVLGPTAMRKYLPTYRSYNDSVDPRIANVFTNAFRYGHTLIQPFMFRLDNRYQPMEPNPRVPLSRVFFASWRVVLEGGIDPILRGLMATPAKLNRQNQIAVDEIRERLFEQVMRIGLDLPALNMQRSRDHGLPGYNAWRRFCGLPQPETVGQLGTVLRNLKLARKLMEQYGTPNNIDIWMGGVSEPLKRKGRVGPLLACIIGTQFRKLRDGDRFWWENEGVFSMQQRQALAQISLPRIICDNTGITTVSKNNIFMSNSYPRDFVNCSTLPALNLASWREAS
Test: Myeloperoxidase Inhibitor Screening Assay Kit (Cayman Chemical), chlorination activity
Type: biochemical
Set-up: purchased Cayman Chemical 700170; concentration or dose not given beside the values
Settings: Table 1; MPO inhibitory activity
Measured Metric: % Activity (%)
Quick note: give the figure in %, leave out the unit.

Please review the entries below; each comes with its answer.
>>> assay_result("O=C1C=C2CC(SCc3cccs3)[C@@H]3C[C@@]2(O1)[C@H]1CCCCN31 (stereo partly drawn) [INVS-MG-14B]")
83
>>> assay_result("O=C1C=C2CC(NC3CC(O)C3)[C@@H]3C[C@@]2(O1)[C@H]1CCCCN31 (stereo partly drawn) [46B]")
99
>>> assay_result("CCCSC1CC2=CC(=O)O[C@@]23C[C@@H]1N1CCCC[C@@H]13 (stereo partly drawn) [58C]")
30
>>> assay_result("NCCSC1CC2=CC(=O)O[C@@]23C[C@@H]1N1CCCC[C@@H]13 (stereo partly drawn) [compound 105]")
99
>>> assay_result("O=C1C=C2C(C#Cc3cccs3)=C[C@@H]3C[C@@]2(O1)[C@H]1CCCCN31 [170B]")
64
>>> assay_result("O=C1C=C2CC(NC3CCCC3)[C@@H]3C[C@@]2(O1)[C@H]1CCCCN31 (stereo partly drawn) [27B]")
46
>>> assay_result("CCCN(CC#CC1=C[C@@H]2C[C@@]3(OC(=O)C=C13)[C@H]1CCCCN21)CCC [152A]")
18
>>> assay_result("COc1ccc2cc(C#CC3=C[C@@H]4C[C@@]5(OC(=O)C=C35)[C@H]3CCCCN43)ccc2c1 [157B]")
80

The recorded % Activity for CC(C)CSC1CC2=CC(=O)O[C@@]23C[C@@H]1N1CCCC[C@@H]13 (stereo in doubt) [57A] is 86

----------
molecular target: MPO (Homo sapiens, UniProt P05164); experiment: Myeloperoxidase Inhibitor Screening Assay Kit (Cayman Chemical), chlorination activity; format: biochemical; set-up: purchased Cayman Chemical 700170; concentration or dose not given beside the values; details: Table 1; MPO inhibitory activity
# cutoff 80% applies to % Activity; >= gives Criterion met, < gives Criterion not met

Would you please look over these solved cases?
>>> class_label("CC(C)SC1CC2=CC(=O)O[C@@]23C[C@@H]1N1CCCC[C@@H]13 (stereo partly drawn) [37B]")
"Criterion met"
>>> class_label("O=C1C=C2CC(SC34CC5CC(CC(C5)C3)C4)[C@@H]3C[C@@]2(O1)[C@H]1CCCCN31 (stereo partly drawn)")
"Criterion not met"
>>> class_label("C#CC1=C[C@@H]2C[C@@]3(OC(=O)C=C13)[C@H]1CCCCN21 [207A]")
"Criterion met"
>>> class_label("O=C1C=C2CC(NC3CCCCCC3)[C@@H]3C[C@@]2(O1)[C@H]1CCCCN31 (stereo partly drawn) [29A]")
"Criterion not met"
>>> class_label("O=C1C=C2CC(N3CCC(F)(F)C3)[C@@H]3C[C@@]2(O1)[C@H]1CCCCN31 (stereo partly drawn)")
"Criterion not met"

Form field: % Activity at least 80%? Entry: O=C1C=C2C[C@H](SCC(F)(F)F)[C@@H]3C[C@@]2(O1)[C@H]1CCCCN31 (stereo in doubt)
Criterion met

Form field: % Activity at least 80%? Entry: CCN(CC)CCSC1CC2=CC(=O)O[C@@]23C[C@@H]1N1CCCC[C@@H]13 (stereo partly drawn) [21B]
Criterion not met

Form field: % Activity at least 80%? Entry: CO[C@H]1CC2=CC(=O)O[C@@]23C[C@@H]1N1CCCC[C@@H]13
Criterion met

Where do the numbers come from? From patent US10149838B2.
